# test system: Mer (Homo sapiens (Human), UniProt Q12866)
# Sequence (Q12866 21-999): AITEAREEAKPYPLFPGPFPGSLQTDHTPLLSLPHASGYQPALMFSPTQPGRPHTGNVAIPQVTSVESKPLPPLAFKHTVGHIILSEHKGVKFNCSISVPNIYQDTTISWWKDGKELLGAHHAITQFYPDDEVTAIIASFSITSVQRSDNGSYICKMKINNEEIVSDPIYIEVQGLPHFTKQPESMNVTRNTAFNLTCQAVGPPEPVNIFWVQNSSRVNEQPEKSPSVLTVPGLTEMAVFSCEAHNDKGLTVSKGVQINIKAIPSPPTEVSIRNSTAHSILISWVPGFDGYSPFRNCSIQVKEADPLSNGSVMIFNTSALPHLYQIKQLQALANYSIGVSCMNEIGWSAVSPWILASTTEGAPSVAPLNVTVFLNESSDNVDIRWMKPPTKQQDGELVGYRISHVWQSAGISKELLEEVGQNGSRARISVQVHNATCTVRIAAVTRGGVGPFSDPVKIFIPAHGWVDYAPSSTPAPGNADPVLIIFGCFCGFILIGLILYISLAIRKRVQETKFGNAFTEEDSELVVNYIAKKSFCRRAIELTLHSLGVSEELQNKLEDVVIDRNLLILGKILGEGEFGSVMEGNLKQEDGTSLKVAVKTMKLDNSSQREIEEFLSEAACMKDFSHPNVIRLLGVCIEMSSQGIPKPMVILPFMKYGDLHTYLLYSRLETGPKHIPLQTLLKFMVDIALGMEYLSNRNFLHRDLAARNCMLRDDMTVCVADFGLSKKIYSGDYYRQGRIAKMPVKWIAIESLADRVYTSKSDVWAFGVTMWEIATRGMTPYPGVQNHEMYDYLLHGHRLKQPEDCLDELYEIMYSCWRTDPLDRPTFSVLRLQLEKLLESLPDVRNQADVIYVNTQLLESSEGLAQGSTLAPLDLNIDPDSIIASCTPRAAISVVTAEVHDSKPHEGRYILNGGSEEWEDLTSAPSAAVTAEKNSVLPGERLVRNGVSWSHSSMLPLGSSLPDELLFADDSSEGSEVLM
# test method notes: Mer autophosphorylation ELISA in transient transfected 293A cells
# condition notes: cellular, MERTK transfected 293A cells
Hi there, I'd appreciate the recorded IC50 for every entry that follows.

Bench note: what IC50 did CC(O)COc1cc2nccc(Oc3ccc(NC(=O)C4(C(=O)Nc5ccc(F)cc5)CC4)cc3)c2cc1C(N)=O (stereo not drawn) show?
10 to 100 nM

Bench note: what IC50 did CNC(=O)c1cc2c(Oc3ccc(NC(=O)C4(C(=O)Nc5ccc(F)cc5)CC4)cc3F)ccnc2cc1OC show?
≤ 10 nM

Bench note: what IC50 did COC(=O)Nc1cc2c(Oc3ccc(NC(=O)C4(C(=O)Nc5ccc(F)cc5)CC4)cc3)ccnc2cc1OC show?
≤ 10 nM
